target: full length N-terminally FLAG-tagged PARP1 (Homo sapiens); assay: PARP1 biochemical DELFIA assay (auto-PARylation); set-up: recombinant full length human N-terminally FLAG-tagged PARP1; details: binned IC50, biochemical auto-PARylation assay
pIC50: −log10 of the molar value.
property-name: pIC50

Asked: State its pIC50 on full length N-terminally FLAG-tagged PARP1 (Homo sapiens): CNC(=O)c1ccc(N2CCC(N3CCC(c4cc5ccc(F)cc5c(=O)[nH]4)C3)CC2)cc1F (single isomer, unassigned) [Compound 270b]
Given back: > 8.00

Asked: Could you do the same for O=C(NC1CC1)c1ccc(N2CCC(N3CCC(c4cc5cccc(F)c5c(=O)[nH]4)C3)CC2)cn1 (single isomer, unassigned) [Compound 339a] , please?
Given back: > 8.00

Asked: Lookup N#Cc1ccc(N2CCC(N3CCC(c4cc5cccc(F)c5c(=O)[nH]4)C3)CC2)c(Cl)c1 (single isomer, unassigned) [Compound 378b]
Given back: > 8.00

Asked: Please give the result for CNC(=O)c1ccc(N2CCC(N3CCC(F)(c4nc5ccccc5c(=O)[nH]4)C3)CC2)cn1 (single isomer, unassigned) [Compound 328b] too.
Given back: 7.00 to 8.00

###

target: full length N-terminally FLAG-tagged PARP1 (Homo sapiens, UniProt P09874); test: PARP1 biochemical DELFIA assay (auto-PARylation); parameters: recombinant full length human N-terminally FLAG-tagged PARP1; conditions: binned IC50, biochemical auto-PARylation assay
Sequence (P09874 whole entry): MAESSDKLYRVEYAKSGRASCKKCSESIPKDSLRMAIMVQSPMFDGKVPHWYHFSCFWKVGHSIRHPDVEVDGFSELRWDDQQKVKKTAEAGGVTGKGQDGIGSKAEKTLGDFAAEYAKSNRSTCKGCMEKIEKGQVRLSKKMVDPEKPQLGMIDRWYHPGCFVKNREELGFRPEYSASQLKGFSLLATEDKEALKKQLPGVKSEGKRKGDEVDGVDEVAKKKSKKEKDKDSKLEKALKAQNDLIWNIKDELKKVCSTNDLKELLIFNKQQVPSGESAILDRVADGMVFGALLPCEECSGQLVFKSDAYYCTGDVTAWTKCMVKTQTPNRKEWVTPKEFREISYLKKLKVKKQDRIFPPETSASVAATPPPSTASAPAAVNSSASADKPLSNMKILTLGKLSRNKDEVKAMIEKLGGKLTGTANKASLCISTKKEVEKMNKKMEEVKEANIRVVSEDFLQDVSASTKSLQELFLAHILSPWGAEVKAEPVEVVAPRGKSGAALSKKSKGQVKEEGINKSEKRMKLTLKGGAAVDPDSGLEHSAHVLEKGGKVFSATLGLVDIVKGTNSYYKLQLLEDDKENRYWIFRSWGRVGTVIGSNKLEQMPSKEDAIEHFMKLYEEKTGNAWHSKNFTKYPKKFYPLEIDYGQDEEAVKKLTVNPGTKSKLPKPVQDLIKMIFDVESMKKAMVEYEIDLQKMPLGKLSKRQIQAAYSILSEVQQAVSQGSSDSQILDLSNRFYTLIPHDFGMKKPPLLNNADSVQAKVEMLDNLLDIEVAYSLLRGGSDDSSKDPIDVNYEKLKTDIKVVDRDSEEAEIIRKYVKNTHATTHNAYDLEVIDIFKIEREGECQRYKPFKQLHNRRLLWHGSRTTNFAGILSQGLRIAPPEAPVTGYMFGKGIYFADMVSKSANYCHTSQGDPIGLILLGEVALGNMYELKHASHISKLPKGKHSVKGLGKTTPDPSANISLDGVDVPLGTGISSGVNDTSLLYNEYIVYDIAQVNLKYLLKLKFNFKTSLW
pIC50: −log10 of the molar value.
property-name: pIC50

Some solved cases for reference:
{"molecule": "O=C(NC1CC1)c1ccc(N2CCC(N3CCC(c4cc5cccc(F)c5c(=O)[nH]4)C3)CC2)c(F)n1 (single isomer, unassigned) [Compound 349a]", "pIC50": "> 8.00"}
{"molecule": "CCc1ccc(C2CCN(C3CCN(c4cnc(C(=O)NC)cc4C(F)(F)F)CC3)C2)[nH]c1=O (single isomer, unassigned) [Compound 298b]", "pIC50": "7.00 to 8.00"}
{"molecule": "CNC(=O)c1ccc(N2CCC(N3CC4(c5nc6c(c(=O)[nH]5)CCCN6C)CC3C4)CC2)c(F)n1", "pIC50": "> 8.00"}
{"molecule": "N#Cc1ccc(N2CCC(N3CCC(c4cc5cccc(F)c5c(=O)[nH]4)C3)CC2)cn1 (single isomer, unassigned) [Compound 316a]", "pIC50": "> 8.00"}
{"molecule": "CNC(=O)c1cc(N2CCC(N3CCC(c4cc5ccccc5c(=O)[nH]4)C3)CC2)cs1 (racemic)", "pIC50": "> 8.00"}
{"molecule": "CCc1ccc(C2(F)CCN(C3CCN(c4ccc(C(=O)NC)nc4F)CC3)C2)[nH]c1=O (racemic)", "pIC50": "7.00 to 8.00"}
{"molecule": "CS(=O)(=O)Nc1ccc(N2CCC(N3CCC(c4cc5ccccc5c(=O)[nH]4)C3)CC2)cn1 (single isomer, unassigned) [Compound 252b]", "pIC50": "7.00 to 8.00"}
{"molecule": "N#Cc1nc(C(=O)NC2CC2)ccc1N1CCC(N2CCC(c3cc4ccc(F)cc4c(=O)[nH]3)C2)CC1 (single isomer, unassigned) [Compound 397b]", "pIC50": "> 8.00"}

Now let's try a different one.
Asked: Request the reported pIC50 associated with N#Cc1ccc(N2CCC(N3CCC(c4cc5cccc(F)c5c(=O)[nH]4)C3)CC2)nc1 (single isomer, unassigned) [Compound 340a]
Given back: > 8.00
